- Tested on: SK-MEL-5
- procedure_text: NCI tumour cell line growth inhibition, 48 h
Calls of active or inactive are those of the source. Cut-off read from the data, not from the text of the source: active = GI50 up to about 1.1 µM and inactive = higher.
// one of active, inactive, no free text

O=c1[nH]c(=O)n(COCc2ccccc2)c2ccc([N+](=O)[O-])cc12
inactive
Cc1ccc(C)c(NC2=NC(=O)C(CC(=O)Nc3ccc(Cl)cc3Cl)S2)c1 (centres undefined)
inactive
CN(CCN(C)C(=S)NN)C(=S)NN
inactive

Asked: I would be grateful if you could indicate the recorded call for CC(=O)Nc1ccc(C(=O)N2N=C(C)/C(=C/c3cccc(O)c3)C2=O)cc1 .
Given back: inactive

Asked: I would be grateful if you could indicate the recorded call for CN1C(=O)C2(C)SC1(c1ccccc1)C1C(=O)N(c3ccccc3)C(=O)C12 (centres undefined) .
Given back: inactive

Asked: I would be grateful if you could indicate the recorded call for Cc1cc(N(CCC#N)CCC#N)ccc1/C=C1N=C(/C=C\c2ccccc2)N(c2ccc(C(=O)O)cc2)C\1=O .
Given back: inactive

Asked: I would be grateful if you could indicate the recorded call for Cc1ccc(-c2nc(N/N=C/c3ccc(O)cc3)c3ccccc3n2)cc1 .
Given back: inactive
